// data source = patent US11964967B2

target-system: bovine cardiac myofibrils (Bos taurus, UniProt Q9BE39)
Construct: full-length cardiac myosin in the context of the native sarcomere
Sequence (Q9BE39 whole entry): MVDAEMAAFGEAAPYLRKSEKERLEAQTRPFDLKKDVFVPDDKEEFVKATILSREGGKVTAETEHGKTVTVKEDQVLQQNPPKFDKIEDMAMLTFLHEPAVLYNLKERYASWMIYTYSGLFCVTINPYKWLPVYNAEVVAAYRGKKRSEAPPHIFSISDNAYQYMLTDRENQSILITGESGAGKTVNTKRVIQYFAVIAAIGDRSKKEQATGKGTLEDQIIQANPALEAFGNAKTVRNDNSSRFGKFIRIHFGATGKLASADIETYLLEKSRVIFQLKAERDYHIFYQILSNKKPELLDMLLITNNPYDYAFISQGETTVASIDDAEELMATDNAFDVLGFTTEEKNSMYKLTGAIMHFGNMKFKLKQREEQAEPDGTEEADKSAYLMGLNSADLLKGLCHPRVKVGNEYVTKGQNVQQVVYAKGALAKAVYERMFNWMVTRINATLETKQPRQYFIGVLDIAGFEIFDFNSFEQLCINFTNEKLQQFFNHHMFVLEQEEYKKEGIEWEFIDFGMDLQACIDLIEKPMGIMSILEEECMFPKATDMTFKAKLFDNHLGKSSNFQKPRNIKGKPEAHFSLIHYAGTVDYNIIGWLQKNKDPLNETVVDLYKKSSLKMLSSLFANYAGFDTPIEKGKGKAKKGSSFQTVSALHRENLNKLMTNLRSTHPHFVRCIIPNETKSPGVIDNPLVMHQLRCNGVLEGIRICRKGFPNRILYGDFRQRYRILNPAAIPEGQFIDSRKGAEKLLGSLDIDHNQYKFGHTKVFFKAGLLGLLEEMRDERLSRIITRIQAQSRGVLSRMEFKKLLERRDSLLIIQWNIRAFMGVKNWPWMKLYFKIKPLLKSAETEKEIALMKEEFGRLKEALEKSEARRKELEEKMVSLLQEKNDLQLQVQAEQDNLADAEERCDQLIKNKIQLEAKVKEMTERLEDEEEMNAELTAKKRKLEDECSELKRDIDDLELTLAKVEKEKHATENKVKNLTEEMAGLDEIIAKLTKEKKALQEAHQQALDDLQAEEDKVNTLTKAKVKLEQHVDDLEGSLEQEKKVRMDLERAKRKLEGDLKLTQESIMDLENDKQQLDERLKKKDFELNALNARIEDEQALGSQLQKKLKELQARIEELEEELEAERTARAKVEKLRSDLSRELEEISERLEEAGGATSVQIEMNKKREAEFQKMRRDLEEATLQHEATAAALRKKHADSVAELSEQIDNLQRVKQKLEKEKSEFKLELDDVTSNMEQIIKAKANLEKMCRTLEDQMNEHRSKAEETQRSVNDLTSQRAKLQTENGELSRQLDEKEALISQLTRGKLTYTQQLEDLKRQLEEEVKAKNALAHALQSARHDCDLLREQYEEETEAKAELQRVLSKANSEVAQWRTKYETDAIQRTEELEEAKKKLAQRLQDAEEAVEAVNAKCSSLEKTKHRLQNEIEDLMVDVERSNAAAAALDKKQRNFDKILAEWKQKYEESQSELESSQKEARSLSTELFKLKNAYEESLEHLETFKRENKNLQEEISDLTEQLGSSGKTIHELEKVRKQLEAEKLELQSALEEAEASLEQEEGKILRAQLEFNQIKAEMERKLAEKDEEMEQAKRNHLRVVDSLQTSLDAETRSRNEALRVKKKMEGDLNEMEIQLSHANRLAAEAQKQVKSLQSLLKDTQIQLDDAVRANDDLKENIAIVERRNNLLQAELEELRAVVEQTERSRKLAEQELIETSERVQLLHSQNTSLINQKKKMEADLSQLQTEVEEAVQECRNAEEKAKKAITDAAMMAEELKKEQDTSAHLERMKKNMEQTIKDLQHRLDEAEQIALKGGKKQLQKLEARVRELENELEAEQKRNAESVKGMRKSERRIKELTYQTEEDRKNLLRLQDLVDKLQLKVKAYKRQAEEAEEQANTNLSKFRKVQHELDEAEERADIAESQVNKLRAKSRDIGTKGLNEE
Sequence (P85100 whole entry partner): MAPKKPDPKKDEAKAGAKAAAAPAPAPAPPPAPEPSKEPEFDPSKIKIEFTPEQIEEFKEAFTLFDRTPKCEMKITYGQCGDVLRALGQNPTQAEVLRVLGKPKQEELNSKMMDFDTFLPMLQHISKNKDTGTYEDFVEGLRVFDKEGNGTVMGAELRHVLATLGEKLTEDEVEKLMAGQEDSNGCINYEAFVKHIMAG
Sequence (Q3SZE5 whole entry partner): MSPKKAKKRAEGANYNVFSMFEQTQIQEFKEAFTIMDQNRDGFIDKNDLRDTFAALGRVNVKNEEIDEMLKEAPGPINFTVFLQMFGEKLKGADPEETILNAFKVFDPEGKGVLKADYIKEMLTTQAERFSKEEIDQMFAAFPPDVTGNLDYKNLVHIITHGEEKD
protocol: Skinned bovine cardiac myofibril ATPase assay (PK/LDH-coupled)
setup-conditions: inhibition of steady-state ATPase activity of bovine cardiac myofibrils; calcium at 75% activation (pCa75); PM12 buffer pH 6.8; read-out: CDMF75 IC50
attribute-measured: IC50

// below: answered compounds
- compound: "CCc1nc(-c2ccc3c(c2)CCC3C(=O)Nc2ccccc2)no1 (single isomer, unassigned) [Compound 8B]"
  meas-value: "> 39.2 µM"
- compound: "Cc1cc(NC(=O)C2CCc3cc(-c4noc(C)n4)ccc32)ccn1 (racemic) [Compound 17]"
  meas-value: "33.4 µM"
- compound: "CCc1nc(-c2ccc3c(c2)OCC32COC(=O)N2)no1 (racemic) [Compound 41]"
  meas-value: "2.2 µM"
- compound: "CCc1nc(-c2ccc3c(c2)CCC3C(=O)Nc2ccccc2)no1 (racemic) [Compound 8]"
  meas-value: "6.1 µM"
- compound: "Cc1nc(-c2ccc3c(c2)CCC32COC(=O)N2)no1 (racemic) [Compound 29]"
  meas-value: "18.4 µM"
- compound: "O=C1NC2(CCc3cc(-c4noc(C(F)F)n4)ccc32)CO1 (single isomer, unassigned) [Compound 38B]"
  meas-value: "> 39.2 µM"
- compound: "CCNC(=O)C1CCc2cc(-c3noc(CC)n3)ccc21 (single isomer, unassigned) [Compound 11A]"
  meas-value: "> 39.2 µM"

Qu. Give its IC50 value. Item: Cc1cc(NC(=O)C2CCc3cc(-c4noc(C(F)F)n4)ccc32)ccn1 (single isomer, unassigned) [Compound 14B]
Ans. > 39.2 µM

###

Examples of compounds with documented pIC50 follow.
target-system: bovine cardiac myofibrils (Bos taurus, UniProt Q9BE39)
Construct: full-length cardiac myosin in the context of the native sarcomere; from tissue; host or cells: bovine cardiac left ventricular tissue, homogenized with detergent (triton X-100)
protocol: Skinned bovine cardiac myofibril ATPase assay (PK/LDH-coupled)
Type: biochemical
setup-conditions: inhibition of steady-state ATPase activity of bovine cardiac myofibrils; calcium at 75% activation (pCa75); PM12 buffer pH 6.8; read-out: CDMF75 IC50
Schema: pIC50 number; meaning minus log10 of the concentration expressed in molar units.

- compound: "Cc1cc(NC(=O)C2CCc3cc(-c4noc(C5CC5)n4)ccc32)ccn1 (single isomer, unassigned) [Compound 20A]"
  target-system: "bovine cardiac myofibrils (Bos taurus, UniProt Q9BE39)"
  attribute-measured: "pIC50"
  meas-value: 5.25

Qu. Suppose we examine the compound O=C1NC2(CCc3cc(-c4noc(C5CC5)n4)ccc32)CO1 (racemic) [Compound 35] ; what pIC50 value has been reported?
Ans. 5.24

Qu. What does the data say about its pIC50? Entry: CCc1nc(-c2ccc3c(c2)CCC32COC(=O)N2)no1 (racemic) [Compound 26]
Ans. 5.52

Qu. Look at this compound and give its reported pIC50. Cc1cc(NC(=O)C2CCc3cc(-c4noc(C(C)C)n4)ccc32)ccn1 (racemic) [Compound 23]
Ans. 4.54

Qu. # input compound: O=C1NC2(CCc3cc(-c4noc(C(F)F)n4)ccc32)CO1 (racemic) [Compound 38] ; wanted: its pIC50
Ans. 4.85

Qu. Looking for the measured pIC50 of CCc1nc(-c2ccc3c(c2)CCC3C(=O)Nc2ccccc2)no1 (single isomer, unassigned) [Compound 8A] , can you help?
Ans. 5.55

Qu. Which pIC50 value belongs to Cc1cc(NC(=O)C2CCc3cc(-c4noc(C(F)F)n4)ccc32)ccn1 (racemic) [Compound 14] ?
Ans. 4.64

Qu. Give the measured pIC50 of CCc1nc(-c2ccc3c(c2)CCC3C(=O)Nc2ccnc(C)c2)no1 (single isomer, unassigned) [Compound 2A] .
Ans. 5.52
